The origin of these recorded values is paper PMC3433420.

Target: PIK3R3-N SH2 domain (Homo sapiens)
Construct: 6X His; thioredoxin; made in house; host or cells: E. coli BL21(DE3)pLysS
Assay: FP saturation binding assay
Details: Protein PIK3R3-N; FP saturation binding, high-confidence ErbB interactions; mean over replicate hits
pKd: −log10 of the molar value. Residues, ends and D or L forms follow the SMILES beside them.
As shown below, each of these molecules has a reported pKd value.

molecule	pKd
CC(C)C[C@H](NC(=O)[C@H](Cc1ccc(OP(=O)(O)O)cc1)NC(=O)[C@H](CCC(=O)O)NC(=O)[C@H](CCC(=O)O)NC(=O)[C@H](C)NC(=O)[C@@H](N)CC(=O)O)C(=O)N[C@H](C(=O)N1CCC[C@H]1C(=O)N[C@@H](CCC(N)=O)C(=O)N[C@@H](CCC(N)=O)C(=O)NCC(=O)N[C@@H](Cc1ccccc1)C(=O)N[C@@H](CC(=O)O)C(=O)O)C(C)C [ErbB2 1023 13-mer] (HELM PEPTIDE1{D.A.E.E.[O=C([C@H](Cc1ccc(OP(=O)(O)O)cc1)N[*:1])[*:2]].L.V.P.Q.Q.G.F.D}$$$$V2.0)	5.28
CC[C@H](C)[C@H](NC(=O)[C@H](CC(C)C)NC(=O)[C@H](Cc1ccc(OP(=O)(O)O)cc1)NC(=O)[C@H](CCC(=O)O)NC(=O)[C@H](CC(=O)O)NC(=O)[C@H](C)NC(=O)[C@@H](N)CC(=O)O)C(=O)N1CCC[C@H]1C(=O)N[C@@H](CCC(N)=O)C(=O)N[C@@H](CCC(N)=O)C(=O)NCC(=O)N[C@@H](Cc1ccccc1)C(=O)N[C@@H](CC(=O)O)C(=O)O	5.49
CC(C)C[C@H](NC(=O)CNC(=O)[C@H](CC(C)C)NC(=O)[C@H](Cc1ccc(OP(=O)(O)O)cc1)NC(=O)[C@H](CCC(=O)O)NC(=O)[C@@H]1CCCN1C(=O)[C@H](CC(N)=O)NC(=O)[C@@H](N)CCC(=O)O)C(=O)N[C@@H](CC(=O)O)C(=O)N[C@H](C(=O)N1CCC[C@H]1C(=O)N[C@H](C(=O)N[C@@H](CC(=O)O)C(=O)O)C(C)C)C(C)C [ErbB2 1248 13-mer] (HELM PEPTIDE1{E.N.P.E.[O=C([C@H](Cc1ccc(OP(=O)(O)O)cc1)N[*:1])[*:2]].L.G.L.D.V.P.V.D}$$$$V2.0)	4.95
CC(C)[C@H](NC(=O)[C@H](CC(=O)O)NC(=O)[C@@H]1CCCN1C(=O)[C@H](CCC(N)=O)NC(=O)[C@H](CC(N)=O)NC(=O)[C@@H](NC(=O)[C@H](Cc1ccc(OP(=O)(O)O)cc1)NC(=O)[C@H](CCC(=O)O)NC(=O)[C@@H]1CCCN1C(=O)[C@H](CCC(N)=O)NC(=O)[C@@H]1CCCN1)C(C)C)C(=O)N[C@@H](CCCNC(=N)N)C(=O)N[C@@H](CC(=O)O)C(=O)O [ErbB2 1139 13-mer] (HELM PEPTIDE1{P.Q.P.E.[O=C([C@H](Cc1ccc(OP(=O)(O)O)cc1)N[*:1])[*:2]].V.N.Q.P.D.V.R.D}$$$$V2.0)	5.04

* * *

As shown below, each of these molecules has a reported pKd value.
Target: RASA1-N SH2 domain (Homo sapiens, UniProt P20936)
Sequence (P20936 181-272 limits assumed): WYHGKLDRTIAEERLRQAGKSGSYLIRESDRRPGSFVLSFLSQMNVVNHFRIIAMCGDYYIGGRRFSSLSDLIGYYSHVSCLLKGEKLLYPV
pKd: −log10 of the molar value. Residues, ends and D or L forms follow the SMILES beside them.
measured.property: pKd

molecule	measured.property	test.value
CC[C@H](C)[C@H](NC(=O)[C@H](CC(C)C)NC(=O)[C@H](Cc1ccc(OP(=O)(O)O)cc1)NC(=O)[C@H](CCC(=O)O)NC(=O)[C@H](CC(=O)O)NC(=O)[C@H](C)NC(=O)[C@@H](N)CC(=O)O)C(=O)N1CCC[C@H]1C(=O)N[C@@H](CCC(N)=O)C(=O)N[C@@H](CCC(N)=O)C(=O)NCC(=O)N[C@@H](Cc1ccccc1)C(=O)N[C@@H](CC(=O)O)C(=O)O [ErbB1 1016 13-mer]	pKd	5.78
CC(C)C[C@H](NC(=O)[C@H](Cc1ccc(O)cc1)NC(=O)[C@H](CC(C)C)NC(=O)[C@@H]1CCCN1C(=O)[C@H](CCC(=O)O)NC(=O)[C@H](CC(N)=O)NC(=O)[C@@H](NC(=O)[C@H](Cc1ccc(OP(=O)(O)O)cc1)NC(=O)[C@H](CCC(=O)O)NC(=O)[C@H](CC(=O)O)NC(=O)[C@H](CCC(=O)O)NC(=O)[C@H](C)N)C(C)C)C(=O)N[C@@H](CC(=O)O)C(=O)O [ErbB4 1202 13-mer] (HELM PEPTIDE1{A.E.D.E.[O=C([C@H](Cc1ccc(OP(=O)(O)O)cc1)N[*:1])[*:2]].V.N.E.P.L.Y.L.D}$$$$V2.0)	pKd	5.84
